test: Stability in human plasma; assay type: in vitro ADME; details: 4 h incubation, RP-HPLC, triplicate, read-out: % of remaining peptide in human plasma after 4 h
Where a SMILES comes first, the peptide text is derived from it.
Recorded metric: remaining at 4 h (%)
Supply the numeric figure in %, leaving out any unit text.

Task: What measured remaining at 4 h goes with CC(C)C[C@H](NC(=O)[C@@H](N)CSSC[C@H](N)C(=O)N[C@@H](CCC(N)=O)C(=O)N[C@@H](Cc1c[nH]cn1)C(=O)N[C@@H](CC(N)=O)C(=O)N1CCC[C@H]1C(=O)N[C@@H](CCCNC(=N)N)C(=O)O)C(=O)N[C@H](C(=O)N[C@H](C(=O)N[C@@H](Cc1ccc(O)cc1)C(=O)N1CCC[C@H]1C(=O)N[C@@H](Cc1c[nH]c2ccccc12)C(=O)N[C@H](C(=O)O)[C@@H](C)O)C(C)C)C(C)C [Peptide X] (HELM PEPTIDE1{C.L.V.V.Y.P.W.T}|PEPTIDE2{C.Q.H.N.P.R}$PEPTIDE1,PEPTIDE2,1:R3-1:R3$$$V2.0) ?
Output: 42
